target: free FIXa (activated Factor IX) (UniProt P00740 47-191; P00740 227-461); assay: BLI
Endpoint label: Kd (nM)
Give just the numeric value; nM need not be written.

Below, each entry is followed by its recorded Kd result.
[
  {
    "Binder": "BIIB-9-889 (antibody, V domains shown) VH: QLQLQESGPGLVKPSETLSLTCTVSGGSISSSSYYWGWIRQPPGKGLEWIGSIYYSGSTYYNPSLKSRVTISVDTSKNQFSLKLSSVTAADTAVYYCARDVGWYTEYFDLWGRGTLVTVSS VL: EIVMTQSPATLSVSPGERATLSCRASQSVSSNLAWYQQKPGQAPRLLIYGASTRATGIPARFSGSGSGTEFTLTISSLQSEDFAVYYCQQAFNWPPTFGGGTKVEIK",
    "Endpoint result": 40.7
  },
  {
    "Binder": "BIIB-9-587 (antibody, V domains shown) VH: QVQLVQSGAEVKKPGASVKVSCKASGYTFTSYYMHWVRQAPGQGLEWMGIINPSGGSTSYAQKFQGRVTMTRDTSTSTVYMELSSLRSEDTAVYYCARGPPGYEYYMDVWGKGTTVTVSS VL: DIQMTQSPSSVSASVGDRVTITCRASQGISSWLAWYQQKPGKAPKLLIYAASSLQSGVPSRFSGSGSGTDFTLTISSLQPEDFATYYCQQADSFPFTFGGGTKVEIK",
    "Endpoint result": 11.8
  }
]

Prompt: Look up Kd for this binder: BIIB-9-578 (antibody, V domains shown) VH: QLQLQESGPGLVKPSETLSLTCTVSGGSISSSSYYWGWIRQPPGKGLEWIGSISYSGSTYYNPSLKSRVTISVDTSKNQFSLKLSSVTAADTAVYYCARDKYQDYSFDIWGQGTMVTVSS VL: DIQMTQSPSSVSASVGDRVTITCRASQGIDSWLAWYQQKPGKAPKLLIYAASSLQSGVPSRFSGSGSGTDFTLTISSLQPEDFATYYCQQANFLPFTFGGGTKVEIK
Response: 4.91
